Target desc: SARS-COV-2 RBD extracellular domain expressed with a C-terminal myc-myc-hexahistidine tag (SARS-COV-2 RBD-mmH) (SARS-CoV-2)
Test name: SPR Biacore, mAb captured on anti-hFc, RBD-mmH analyte, 37 C

| Binder | koff [s⁻¹] |
| --- | --- |
| mAb14258 (antibody, V domains shown) VH: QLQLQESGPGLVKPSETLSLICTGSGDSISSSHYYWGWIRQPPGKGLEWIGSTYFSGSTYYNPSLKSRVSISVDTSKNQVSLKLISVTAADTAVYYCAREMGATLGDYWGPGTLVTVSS VL: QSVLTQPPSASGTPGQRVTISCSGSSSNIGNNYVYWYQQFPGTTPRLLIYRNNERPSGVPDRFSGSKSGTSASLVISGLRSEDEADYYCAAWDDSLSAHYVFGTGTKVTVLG | 0.0017 |
| mAb14255 (antibody, V domains shown) VH: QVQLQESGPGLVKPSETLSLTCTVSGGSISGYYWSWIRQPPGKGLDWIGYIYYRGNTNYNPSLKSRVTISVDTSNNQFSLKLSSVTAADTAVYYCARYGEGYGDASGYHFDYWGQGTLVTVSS VL: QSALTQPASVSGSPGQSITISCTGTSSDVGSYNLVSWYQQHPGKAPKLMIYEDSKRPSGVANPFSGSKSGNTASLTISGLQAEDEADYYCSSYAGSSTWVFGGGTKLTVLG | 0.00535 |
| mAb15160 (antibody, V domains shown) VH: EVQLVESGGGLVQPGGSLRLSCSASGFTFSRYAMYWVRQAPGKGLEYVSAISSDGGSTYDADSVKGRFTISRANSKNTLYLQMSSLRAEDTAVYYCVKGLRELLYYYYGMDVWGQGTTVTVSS VL: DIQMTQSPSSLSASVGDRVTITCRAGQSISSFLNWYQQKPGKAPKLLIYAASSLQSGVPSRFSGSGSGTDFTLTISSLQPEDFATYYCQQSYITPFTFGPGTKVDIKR | 0.00194 |

Values compiled from patent US20260069689A1.
